These measurements were taken from patent US10975055B2.

Hi there, I'd appreciate the recorded pIC50 for every entry that follows.
# TARGET_OR_SYSTEM: IRAK4 (Homo sapiens)
# Sequence (Q9NWZ3 whole entry): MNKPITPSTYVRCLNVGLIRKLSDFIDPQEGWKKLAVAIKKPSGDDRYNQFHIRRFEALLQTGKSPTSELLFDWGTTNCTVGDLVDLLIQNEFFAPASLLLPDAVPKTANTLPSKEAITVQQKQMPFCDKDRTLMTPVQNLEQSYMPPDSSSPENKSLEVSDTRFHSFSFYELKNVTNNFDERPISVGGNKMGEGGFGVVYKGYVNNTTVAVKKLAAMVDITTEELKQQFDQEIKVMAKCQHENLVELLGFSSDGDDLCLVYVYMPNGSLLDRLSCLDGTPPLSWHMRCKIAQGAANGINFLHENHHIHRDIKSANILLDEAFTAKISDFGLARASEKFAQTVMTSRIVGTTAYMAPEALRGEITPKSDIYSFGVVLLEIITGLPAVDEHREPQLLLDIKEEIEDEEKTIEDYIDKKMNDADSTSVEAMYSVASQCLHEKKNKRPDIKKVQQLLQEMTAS
# ASSAY_INFO: IRAK4 Z-lyte kinase assay (FRET peptide substrate)
# Assay type: biochemical
# CONDITION_DESCRIPTION: read-out: IRAK4 IC50
FYI, pIC50 means -log10 of a concentration in mol per litre.

**Q:** Find the measured pIC50: item C=CC(=O)N[C@H]1CC[C@H](NC(=O)c2ccc(NC(=O)c3cccc(-c4ccn[nH]4)n3)cc2)CC1 , target or system IRAK4 (Homo sapiens).
**A:** 6.81

**Q:** Try this compound next: C=CC(=O)N[C@H]1CC[C@H](C(=O)Nc2ccc(NC(=O)c3cccc(-c4ccn[nH]4)n3)cc2)CC1
**A:** 5.95

**Q:** Try this compound next: C=CC(=O)NC12CC(NC(=O)c3ccc(NC(=O)c4cccc(-c5ccn[nH]5)n4)cc3)(C1)C2
**A:** 6.22

**Q:** Try this compound next: C=CC(=O)N[C@H]1CCC[C@@H](NC(=O)c2ccc(NC(=O)c3cccc(-c4ccn[nH]4)n3)cc2)C1
**A:** 6.19

----------
# ASSAY_INFO: In vivo PK studies
# CONDITION_DESCRIPTION: dosed IV
OBSERVABLE: half-life

**Q:** Give its half-life value. Item: C=CC(=O)Nc1cccc(C(=O)Nc2ccc(NC(=O)c3cccc(-c4ccn[nH]4)n3)cc2)c1
**A:** 1.61 h

----------
# ASSAY_INFO: In vivo PK studies
# CONDITION_DESCRIPTION: dosed IV
OBSERVABLE: clearance
# do not omit the unit; it follows the number

**Q:** Give its clearance value. Item: C=CC(=O)Nc1cccc(C(=O)Nc2ccc(NC(=O)c3cccc(-c4ccn[nH]4)n3)cc2)c1
**A:** 18.8 mL/min/kg

----------
# ASSAY_INFO: In vivo PK studies
# CONDITION_DESCRIPTION: dosed IV
OBSERVABLE: Cmax (µM)
Give the value in µM but do not write µM after it.

**Q:** Give its Cmax value. Item: C=CC(=O)Nc1cccc(C(=O)Nc2ccc(NC(=O)c3cccc(-c4ccn[nH]4)n3)cc2)c1
**A:** 9.95

----------
Hi there, I'd appreciate the recorded IC50 for every entry that follows.
# TARGET_OR_SYSTEM: IRAK1 (Homo sapiens)
# Sequence (P51617 whole entry): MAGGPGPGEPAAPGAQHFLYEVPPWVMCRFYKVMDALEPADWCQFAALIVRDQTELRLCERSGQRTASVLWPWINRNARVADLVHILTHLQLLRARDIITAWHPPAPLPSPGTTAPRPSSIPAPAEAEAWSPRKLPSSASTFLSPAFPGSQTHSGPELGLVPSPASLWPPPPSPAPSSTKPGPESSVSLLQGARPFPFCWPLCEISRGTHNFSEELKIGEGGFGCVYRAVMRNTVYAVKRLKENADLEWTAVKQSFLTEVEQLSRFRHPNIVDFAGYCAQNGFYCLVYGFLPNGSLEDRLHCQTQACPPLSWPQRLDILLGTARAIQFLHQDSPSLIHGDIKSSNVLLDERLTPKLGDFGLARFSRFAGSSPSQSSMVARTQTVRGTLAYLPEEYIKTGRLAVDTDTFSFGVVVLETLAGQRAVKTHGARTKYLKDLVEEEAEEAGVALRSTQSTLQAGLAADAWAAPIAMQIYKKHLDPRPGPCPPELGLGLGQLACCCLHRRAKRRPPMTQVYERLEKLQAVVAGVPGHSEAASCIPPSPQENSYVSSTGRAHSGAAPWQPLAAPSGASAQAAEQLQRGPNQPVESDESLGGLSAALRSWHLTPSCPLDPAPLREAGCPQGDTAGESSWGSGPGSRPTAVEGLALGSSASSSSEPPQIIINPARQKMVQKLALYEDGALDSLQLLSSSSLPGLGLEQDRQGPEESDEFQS
# ASSAY_INFO: IRAK1 Alexa kinase assay (TR-FRET, ADP tracer)
# Type: biochemical
# CONDITION_DESCRIPTION: read-out: IRAK1 IC50
Give the value in nM but do not write nM after it.

**Q:** Find the measured IC50: item C=CC(=O)N[C@H]1CCC[C@@H](C(=O)Nc2ccc(NC(=O)c3cccc(-c4ccn[nH]4)n3)cc2)C1 , target or system IRAK1 (Homo sapiens).
**A:** 72

**Q:** Try this compound next: C=CC(=O)Nc1cccc(C(=O)Nc2ccc(NC(=O)c3cccc(-c4ccn[nH]4)n3)cc2)c1
**A:** 9.3

**Q:** Try this compound next: C=CC(=O)N[C@H]1CC[C@H](C(=O)Nc2ccc(NC(=O)c3cccc(-c4ccn[nH]4)n3)cc2)CC1
**A:** 88

**Q:** Try this compound next: C=CC(=O)N[C@H]1CCC[C@@H](NC(=O)c2ccc(NC(=O)c3cccc(-c4ccn[nH]4)n3)cc2)C1
**A:** 24
